% Phosphatase Activity (compared to DMSO) PRL-3 overview
ASSAY SYSTEM: recombinant PRL-3 (Homo sapiens)
Construct: 6xHis (N, cleaved yes); made in house; host or cells: E. coli One Shot BL21 Star
Sequence (O75365 whole entry): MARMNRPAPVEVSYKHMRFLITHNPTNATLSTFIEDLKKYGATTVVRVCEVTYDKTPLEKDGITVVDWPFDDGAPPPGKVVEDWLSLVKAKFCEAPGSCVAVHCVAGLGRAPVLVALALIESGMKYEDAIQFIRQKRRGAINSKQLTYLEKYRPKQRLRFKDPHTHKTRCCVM
EXPERIMENT SUMMARY: In vitro phosphatase assay (DiFMUP hydrolysis), PRL-3; also: test concentration or dose not given here
Assay type: biochemical
CONDITION LABEL: FDA-approved drug screen; compared to DMSO
# output: bare number, implied unit %

COc1ccccc1Oc1c(NS(=O)(=O)c2ccc(C(C)(C)C)cc2)nc(-c2ncccn2)nc1OCCO [Bosentan]: 71
CN1[C@@H]2C[C@@H](OC(=O)[C@H](CO)c3ccccc3)C[C@H]1[C@@H]1O[C@@H]12 [Scopolamine HBr]: 77
C[C@]12CC[C@H](O)CC1=CC[C@@H]1[C@@H]2CC[C@]2(C)C(n3cnc4ccccc43)=CC[C@@H]12 [Galeterone]: 96
CNC1CCCN(c2c(F)cc3c(=O)c(C(=O)O)cn(C4CC4)c3c2OC)C1 (centres unmarked) [Balofloxacin]: 123

Form field: reported % Phosphatase Activity (compared to DMSO) PRL-3 of O=C1c2cccc(O)c2C(=O)c2c(O)cccc21 [Danthron]
78

Form field: reported % Phosphatase Activity (compared to DMSO) PRL-3 of NS(=O)(=O)c1cc2c(cc1Cl)N=C(CSCc1ccccc1)NS2(=O)=O [Benzthiazide]
99

Form field: reported % Phosphatase Activity (compared to DMSO) PRL-3 of COc1ccc([C@H]2CNC(=O)C2)cc1OC1CCCC1 [S- (+)-Rolipram]
87

Form field: reported % Phosphatase Activity (compared to DMSO) PRL-3 of CCOc1cc([C@@H](CS(C)(=O)=O)N2C(=O)c3cccc(NC(C)=O)c3C2=O)ccc1OC [Apremilast (CC-10004)]
86
